System: AncSZ
Test: phosphorylation enrichment, bacterial display (enrichment ratio); higher = better substrate or ligand; peptides without Tyr show the background;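 further: 11-residue human phosphosite peptides and single-mutation variants displayed on the E. coli surface, counted by deep sequencing, each peptide's frequency after selection divided by its frequency in the unselected input library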;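 further: frequency after pTyr selection over input frequency; kinase dosed for 20-30% of maximal phosphorylation in three min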
Definition: the class of an entry is the range in bottom bin = under 0.8, middle bin = from 0.8 up to 1, top bin = 1 and over that contains its phosphorylation enrichment.

Example results:
> print(dat)
             ordered.residues  system  qualitative.label
1  YGAHKYHPLPV [OAT_Y55_N54K]   AncSZ         bottom bin
2  PQEVTYAQLDH [KIR3DL2_Y398]   AncSZ            top bin

Which phosphorylation enrichment band matches TSPALYRLDLD [TRIL_Y352_A347T] ?
middle bin

Form field 'band' for GISDEYHVIWH [GCDH_Y398_R402W]
top bin

---

Target: EPHB1 (UniProt P54762)
Sequence (P54762 whole entry, looked up): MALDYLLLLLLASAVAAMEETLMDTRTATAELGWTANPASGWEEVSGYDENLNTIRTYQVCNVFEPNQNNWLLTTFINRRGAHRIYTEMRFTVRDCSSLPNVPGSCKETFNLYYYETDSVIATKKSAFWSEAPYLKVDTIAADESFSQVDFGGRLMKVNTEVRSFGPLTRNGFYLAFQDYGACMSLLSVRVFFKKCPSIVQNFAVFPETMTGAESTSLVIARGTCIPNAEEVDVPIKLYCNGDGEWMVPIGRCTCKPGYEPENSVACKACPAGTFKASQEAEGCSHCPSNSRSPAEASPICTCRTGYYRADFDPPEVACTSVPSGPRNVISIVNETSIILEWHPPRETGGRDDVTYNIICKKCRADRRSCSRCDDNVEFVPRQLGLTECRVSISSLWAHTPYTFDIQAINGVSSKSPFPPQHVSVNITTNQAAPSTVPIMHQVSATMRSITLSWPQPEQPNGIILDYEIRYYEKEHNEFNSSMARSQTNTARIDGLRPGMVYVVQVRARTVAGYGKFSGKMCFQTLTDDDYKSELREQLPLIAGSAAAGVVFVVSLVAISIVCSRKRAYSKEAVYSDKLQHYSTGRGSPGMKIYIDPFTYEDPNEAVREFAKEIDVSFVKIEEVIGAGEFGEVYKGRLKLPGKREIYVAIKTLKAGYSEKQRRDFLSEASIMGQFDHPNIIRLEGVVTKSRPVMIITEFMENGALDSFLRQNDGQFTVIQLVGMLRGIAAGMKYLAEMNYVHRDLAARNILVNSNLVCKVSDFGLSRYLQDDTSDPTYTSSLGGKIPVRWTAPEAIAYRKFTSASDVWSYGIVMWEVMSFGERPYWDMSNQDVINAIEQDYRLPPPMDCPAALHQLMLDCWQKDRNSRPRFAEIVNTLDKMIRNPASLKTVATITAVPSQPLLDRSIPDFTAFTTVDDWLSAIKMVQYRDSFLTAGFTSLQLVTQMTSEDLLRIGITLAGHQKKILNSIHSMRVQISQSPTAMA
Test: phosphorylation enrichment, bacterial display (enrichment ratio); higher = better substrate or ligand; peptides without Tyr show the background
Decision: phosphorylation enrichment compared against 0.7; not below it gives 1 (yes), below it gives 0 (no).

Example entries and their recorded answers appear below.
> print(dat)
                 ordered.residues  qualitative.label
1      VFFFSYLLKNH [PTEN_Y180_YF]             0 (no)
2     KKCTTYIDCDL [ASPA_Y64_R63T]             0 (no)
3  IRRSSYEDSSL [HNF4A_Y144_T139I]             0 (no)
4       TVDASYYGGRG [ANTXR2_Y380]             0 (no)
5        EAVKNYTDKRG [PBRM1_Y672]             0 (no)
6          ARKWGYTVKGI [OAT_Y158]             0 (no)
7       KWHREYNSKYV [RICTOR_Y835]             0 (no)
8        LTVVIYVLIGR [EPHA3_Y561]            1 (yes)

For this sequence, is measured phosphorylation enrichment 0.7 or higher? GHLFAYNWISI [BEST1_Y227_D228N_YF]
0 (no)

Please check the record HLWRIYFDITD [MMP27_Y307_YF] and state if its phosphorylation enrichment is at or above 0.7.
1 (yes)

Could you tell me if the measured phosphorylation enrichment of PVQAAYQNVVA [HBB_Y131_K133N] reaches 0.7 or more?
1 (yes)

State whether the measured phosphorylation enrichment reaches 0.7, counting equality as reaching it, for SGDITYGQFAQ [PLCG1_Y210]
0 (no)

Reported phosphorylation enrichment at or above 0.7? YIILIYAMKKK [SLCO1B1_Y645]
0 (no)

Hi team, for ALIKAYVKAVA [SMN1_Y43_D44V] , is the recorded phosphorylation enrichment at or above 0.7?
0 (no)

Entry DEEEEYEYMNR [ERBB3_Y1197_D1194E] : is its phosphorylation enrichment no less than 0.7?
0 (no)

Quick check: does PLLEYYWDIFT [CDAN1_Y713_R714W] have phosphorylation enrichment greater than or equal to 0.7?
1 (yes)

Hello, I need to know if IINENYDFLKV [NUP98_Y1664_G1669V_YF] has measured phosphorylation enrichment not below 0.7. Thanks!
1 (yes)

Does the reported phosphorylation enrichment for EQWRAYLEGTC [HLA-C_Y183_L180W] fall at or above the 0.7 mark?
0 (no)

Could you tell me if the measured phosphorylation enrichment of CHSDDYVHISL [TSC1_Y406] reaches 0.7 or more?
1 (yes)

Test whether the sequence FEPWVYSLSYE [PRKDC_Y647_F649L] records phosphorylation enrichment of 0.7 or higher.
1 (yes)

Please tell me: is the sequence HEPKGYNANFC [TGFB2_Y341] at or over 0.7 in terms of phosphorylation enrichment?
0 (no)
